target: Tyrosine-protein kinase BTK (Homo sapiens, UniProt Q06187); experiment: Inhibition of human recombinant full-length N-terminal His-tagged BTK expressed in baculovirus infected Sf9 insect cells after 60 mins by ADP-Glo kinase assay
Sequence (Q06187 whole entry): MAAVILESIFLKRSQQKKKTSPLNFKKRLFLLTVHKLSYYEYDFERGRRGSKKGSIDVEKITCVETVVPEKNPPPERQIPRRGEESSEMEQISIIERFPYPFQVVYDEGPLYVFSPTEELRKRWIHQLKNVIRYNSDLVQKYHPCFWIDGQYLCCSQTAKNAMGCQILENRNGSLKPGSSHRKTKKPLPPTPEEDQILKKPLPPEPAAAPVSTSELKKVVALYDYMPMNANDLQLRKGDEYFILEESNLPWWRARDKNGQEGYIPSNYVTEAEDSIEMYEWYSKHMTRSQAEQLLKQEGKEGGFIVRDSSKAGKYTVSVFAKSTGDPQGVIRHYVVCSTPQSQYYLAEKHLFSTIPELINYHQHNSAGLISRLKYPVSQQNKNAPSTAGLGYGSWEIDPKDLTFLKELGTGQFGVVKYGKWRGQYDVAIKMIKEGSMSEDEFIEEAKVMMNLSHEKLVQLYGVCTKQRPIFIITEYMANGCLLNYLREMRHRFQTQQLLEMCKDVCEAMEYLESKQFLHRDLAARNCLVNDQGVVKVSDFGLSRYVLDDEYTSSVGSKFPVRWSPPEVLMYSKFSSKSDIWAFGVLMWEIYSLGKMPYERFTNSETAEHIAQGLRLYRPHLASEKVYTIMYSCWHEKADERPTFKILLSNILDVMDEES
Measured pIC50, listed per entry for reference.
FYI, pIC50 means -log10 of a concentration in mol per litre.

Before answering, review these 3 worked examples.
C=CC(=O)Nc1cccc(Nc2nc(Nc3ccc(NS(=O)(=O)c4ccc(C)cc4)cc3)ncc2Cl)c1 : 7.23
C=CC(=O)Nc1cccc(Nc2nc(Nc3ccc(NS(=O)(=O)c4ccc(OC)cc4)cc3)ncc2F)c1 : 9.04
C=CC(=O)Nc1cccc(Nc2nc(Nc3ccc(NS(=O)(=O)c4ccc(C)cc4)c(C)c3)ncc2[N+](=O)[O-])c1 : 7.31

Field: next compound
Identify measured pIC50 corresponding to C=CC(=O)Nc1cccc(Nc2nc(Nc3ccc(NS(=O)(=O)c4ccc(OC)cc4)cc3)ncc2[N+](=O)[O-])c1
7.62
